system: TbTryR (recombinant T. b. brucei trypanothione reductase); conditions: ratio of IC50 values at respective S = Km
This section presents compounds with their documented Ratio Tc/Tb (IC50 TcTryR / IC50 TbTryR) values.

Q: Ratio Tc/Tb (IC50 TcTryR / IC50 TbTryR) for `CN(C)CCC(=O)c1ccc(S(C)(=O)=O)cc1` ?
Ans: 2.5

Q: I have this compound here, CN(C)CCCC1(c2ccc(F)cc2)OCc2cc(C#N)ccc21 (centres unmarked) , and I need its recorded Ratio Tc/Tb (IC50 TcTryR / IC50 TbTryR).
Ans: 1.9

Q: # input compound: `CN(C)CCC(=O)c1cccc([N+](=O)[O-])c1` ; wanted: its Ratio Tc/Tb (IC50 TcTryR / IC50 TbTryR)
Ans: 1.2

Q: Can you share its Ratio Tc/Tb (IC50 TcTryR / IC50 TbTryR)? I mean this compound: `CC(C)(C)c1cc(CN(CCO)CCO)cc(C(C)(C)C)c1O`
Ans: 1.4

Q: What measured Ratio Tc/Tb (IC50 TcTryR / IC50 TbTryR) goes with `O=c1c2ccccc2[se]n1-c1ccccc1` ?
Ans: 3.3

These data points were gathered from paper PMC2789240.
